Catalogue of hGLP-1R Potency, no HSA, EC50 [pM] readings, one per entry.
Target: human GLP-1 receptor (human, UniProt P43220 24-463)
Test: cell-based or functional assay
Square brackets hold non-standard residues; d marks the D form. Chem. 28 = not defined here; Aib = CC(C)(N)C(=O)O
// return numeric value only (unit: pM, not printed)

Compound 102 (reading uncertain) peptide: Y[Aib]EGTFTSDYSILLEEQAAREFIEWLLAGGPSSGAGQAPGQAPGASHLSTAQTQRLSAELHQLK(Chem. 28)TLPRTETGSGSP-NH2 | 11

Could you tell me which hGLP-1R Potency, no HSA, EC50 [pM] is on file for Compound 99 (not fully specified (residue 62)) peptide: Y[Aib]EGTFTSDYSILLEEQAAREFIEWLLAGGPSSGALQAPGQAPLASHLSTAQTQRLSAELHKLATLPRTETGSGSP-NH2 ?
16.7
